Reported values of relative viability for individual entries
# Test system: NCI-H1734
# procedure_summary: relative viability (nuclei count vs DMSO), 5 days (fraction); higher = more cells survive
# test_settings: first compound 0.3162 µM
quantity: relative viability

CCN(CC)CCCCNc1ncc2cc(-c3cc(OC)cc(OC)c3)c(NC(=O)NC(C)(C)C)nc2n1 + Nc1nc2[nH]cc(CCc3ccc(C(=O)N[C@@H](CCC(=O)O)C(=O)O)cc3)c2c(=O)[nH]1 [Pemetrexed] (partner 0.2 µM); 0.409
CCN(CC)CCCCNc1ncc2cc(-c3cc(OC)cc(OC)c3)c(NC(=O)NC(C)(C)C)nc2n1 + C[C@]1(O)C[C@@H](c2nc(-c3ccc4ccc(-c5ccccc5)nc4c3)c3c(N)nccn32)C1 [Linsitinib] (partner 1 µM); 0.913
O=c1cc(N2CCOCC2)oc2c(-c3cccc4c3sc3ccccc34)cccc12 + N=C(N)NC(=N)NCCc1ccccc1 [Phenformin] (partner 250 µM); 0.388
CCN(CC)CCCCNc1ncc2cc(-c3cc(OC)cc(OC)c3)c(NC(=O)NC(C)(C)C)nc2n1 + O=C(CCCCCCC(=O)Nc1ccccc1)NO [Vorinostat] (partner 1 µM); 0.864
CCN(CC)CCCCNc1ncc2cc(-c3cc(OC)cc(OC)c3)c(NC(=O)NC(C)(C)C)nc2n1 + Cc1nc(NC(=O)N2CCC[C@H]2C(N)=O)sc1-c1ccnc(C(C)(C)C(F)(F)F)c1 [Alpelisib] (partner 2 µM); 0.707
